- study_system: Aryl hydrocarbon receptor (Homo sapiens) (UniProt P35869)
- Sequence (P35869 whole entry, looked up): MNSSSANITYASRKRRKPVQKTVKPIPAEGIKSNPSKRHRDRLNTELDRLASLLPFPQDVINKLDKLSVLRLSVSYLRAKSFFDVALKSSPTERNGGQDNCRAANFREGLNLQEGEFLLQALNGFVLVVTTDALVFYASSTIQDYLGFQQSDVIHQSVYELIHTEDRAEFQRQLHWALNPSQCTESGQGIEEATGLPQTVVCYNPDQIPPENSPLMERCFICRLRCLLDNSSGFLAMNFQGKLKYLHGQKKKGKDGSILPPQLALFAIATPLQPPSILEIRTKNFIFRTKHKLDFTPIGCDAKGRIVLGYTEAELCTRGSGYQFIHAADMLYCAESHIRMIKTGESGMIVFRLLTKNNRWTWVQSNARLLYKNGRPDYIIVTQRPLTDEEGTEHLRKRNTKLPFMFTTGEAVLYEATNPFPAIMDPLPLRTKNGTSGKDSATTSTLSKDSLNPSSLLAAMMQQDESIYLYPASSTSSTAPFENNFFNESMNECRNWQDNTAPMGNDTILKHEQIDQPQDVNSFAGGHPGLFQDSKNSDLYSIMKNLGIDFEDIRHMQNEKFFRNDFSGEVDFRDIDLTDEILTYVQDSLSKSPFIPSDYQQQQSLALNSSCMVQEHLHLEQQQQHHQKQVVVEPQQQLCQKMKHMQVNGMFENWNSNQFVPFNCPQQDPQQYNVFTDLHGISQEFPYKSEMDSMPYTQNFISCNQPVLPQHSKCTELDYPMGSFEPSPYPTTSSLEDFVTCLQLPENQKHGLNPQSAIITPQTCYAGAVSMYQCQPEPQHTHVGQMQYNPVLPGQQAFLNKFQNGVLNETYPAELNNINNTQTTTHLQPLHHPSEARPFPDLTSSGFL
- procedure_details: qHTS assay to identify small molecule that activate the aryl hydrocarbon receptor (AhR) signaling pathway (AID 743085); further: nearly all actives have a fitted effect of over 15% in size;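 on activation: HG2L7.5c1 human HepG2 liver cells with stably integrated DRE-driven firefly reporter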
- stated_conditions: HepG2 AhR-luc (HG2L7.5c1), luciferase, 24 h; series mostly up to 70.3 µM
- Source text: U.S. Tox21 Program National Center for Advancing Translational Sciences [NCATS] NIH Chemical Genomics Center [NCGC] U.S. Environmental Protection Agency [EPA] National Institutes of Environmental Health Sciences [NIEHS] National Toxicology Program [NTP] U.S. Food and Drug Administration [FDA] Tox21 Assay overview: The Aryl hydrocarbon Receptor (AhR), a member of the family of basic helix-loop-helix transcription factors, is crucial to adaptive responses to environmental changes. […]
Results filed as inconclusive are left out. The source made the active and inactive calls. The call rests on the fitted dose curve; in most records, active means well fitted activation curve with a large enough effect in the repeat runs; inconclusive means weak or mixed curves; inactive means no such curve, though single readings can be large or run the other way.
Classes used: y for active, n for inactive

INSERT INTO assay_data (compound, study_system, label) VALUES
  ('CCc1ccc(Br)cc1', 'Aryl hydrocarbon receptor (Homo sapiens) (UniProt P35869)', 'n'),
  ('COc1cccc2c1C(=O)c1c(O)c3c(c(O)c1C2=O)C[C@@](O)(C(C)=O)C[C@@H]3O[C@H]1C[C@H](N)[C@H](O)[C@H](C)O1', 'Aryl hydrocarbon receptor (Homo sapiens) (UniProt P35869)', 'y'),
  ('OC1CCCc2ccccc21 (stereo unspecified)', 'Aryl hydrocarbon receptor (Homo sapiens) (UniProt P35869)', 'n'),
  ('O=C(Nc1ccc2c(O)c(N=Nc3ccc(N=Nc4ccc(S(=O)(=O)O)cc4)cc3)c(S(=O)(=O)O)cc2c1)c1ccccc1', 'Aryl hydrocarbon receptor (Homo sapiens) (UniProt P35869)', 'n'),
  ('C=C(CC)C(=O)c1ccc(OCC(=O)O)c(Cl)c1Cl', 'Aryl hydrocarbon receptor (Homo sapiens) (UniProt P35869)', 'n'),
  ('CC1(C)CCC[C@]2(C)[C@H]3CC(=O)O[C@]3(C)CC[C@@H]12', 'Aryl hydrocarbon receptor (Homo sapiens) (UniProt P35869)', 'n'),
  ('OC[C@@H](O)[C@@H](O)CO', 'Aryl hydrocarbon receptor (Homo sapiens) (UniProt P35869)', 'n'),
  ('C[C@H]1NCc2cc(-c3ccc4c(=O)c(C(=O)O)cn(C5CC5)c4c3OC(F)F)ccc21', 'Aryl hydrocarbon receptor (Homo sapiens) (UniProt P35869)', 'n'),
  ('CCCCCC/C=C\CCCCCCCC(=O)O', 'Aryl hydrocarbon receptor (Homo sapiens) (UniProt P35869)', 'n'),
  ('C=C(C)C(=O)OCCCCCCCCCC', 'Aryl hydrocarbon receptor (Homo sapiens) (UniProt P35869)', 'n'),
  ('OCC(F)(F)F', 'Aryl hydrocarbon receptor (Homo sapiens) (UniProt P35869)', 'n'),
  ('CC(=O)Oc1cc2c(s1)CCN(C(C(=O)C1CC1)c1ccccc1F)C2 (stereo unspecified)', 'Aryl hydrocarbon receptor (Homo sapiens) (UniProt P35869)', 'n'),
  ('Cc1nc2n(c(=O)c1CCN1CCC(c3noc4cc(F)ccc34)CC1)CCCC2', 'Aryl hydrocarbon receptor (Homo sapiens) (UniProt P35869)', 'n'),
  ('FC(F)(F)c1cccc(Cl)c1', 'Aryl hydrocarbon receptor (Homo sapiens) (UniProt P35869)', 'n'),
  ('CCCCCCCCCCCC(=O)OCC(C)OC(=O)CCCCC(=O)O (stereo unspecified)', 'Aryl hydrocarbon receptor (Homo sapiens) (UniProt P35869)', 'n'),
  ('CCN(CC)C(=O)c1cc(S(=O)(=O)Cc2ccccc2)c(N2CCC(c3ccccc3)CC2)cc1N(CC)CCN(C)C', 'Aryl hydrocarbon receptor (Homo sapiens) (UniProt P35869)', 'n');
